# subject_of_test: ATP-dependent translocase ABCB1 (Homo sapiens, UniProt P08183)
# Sequence (P08183 whole entry): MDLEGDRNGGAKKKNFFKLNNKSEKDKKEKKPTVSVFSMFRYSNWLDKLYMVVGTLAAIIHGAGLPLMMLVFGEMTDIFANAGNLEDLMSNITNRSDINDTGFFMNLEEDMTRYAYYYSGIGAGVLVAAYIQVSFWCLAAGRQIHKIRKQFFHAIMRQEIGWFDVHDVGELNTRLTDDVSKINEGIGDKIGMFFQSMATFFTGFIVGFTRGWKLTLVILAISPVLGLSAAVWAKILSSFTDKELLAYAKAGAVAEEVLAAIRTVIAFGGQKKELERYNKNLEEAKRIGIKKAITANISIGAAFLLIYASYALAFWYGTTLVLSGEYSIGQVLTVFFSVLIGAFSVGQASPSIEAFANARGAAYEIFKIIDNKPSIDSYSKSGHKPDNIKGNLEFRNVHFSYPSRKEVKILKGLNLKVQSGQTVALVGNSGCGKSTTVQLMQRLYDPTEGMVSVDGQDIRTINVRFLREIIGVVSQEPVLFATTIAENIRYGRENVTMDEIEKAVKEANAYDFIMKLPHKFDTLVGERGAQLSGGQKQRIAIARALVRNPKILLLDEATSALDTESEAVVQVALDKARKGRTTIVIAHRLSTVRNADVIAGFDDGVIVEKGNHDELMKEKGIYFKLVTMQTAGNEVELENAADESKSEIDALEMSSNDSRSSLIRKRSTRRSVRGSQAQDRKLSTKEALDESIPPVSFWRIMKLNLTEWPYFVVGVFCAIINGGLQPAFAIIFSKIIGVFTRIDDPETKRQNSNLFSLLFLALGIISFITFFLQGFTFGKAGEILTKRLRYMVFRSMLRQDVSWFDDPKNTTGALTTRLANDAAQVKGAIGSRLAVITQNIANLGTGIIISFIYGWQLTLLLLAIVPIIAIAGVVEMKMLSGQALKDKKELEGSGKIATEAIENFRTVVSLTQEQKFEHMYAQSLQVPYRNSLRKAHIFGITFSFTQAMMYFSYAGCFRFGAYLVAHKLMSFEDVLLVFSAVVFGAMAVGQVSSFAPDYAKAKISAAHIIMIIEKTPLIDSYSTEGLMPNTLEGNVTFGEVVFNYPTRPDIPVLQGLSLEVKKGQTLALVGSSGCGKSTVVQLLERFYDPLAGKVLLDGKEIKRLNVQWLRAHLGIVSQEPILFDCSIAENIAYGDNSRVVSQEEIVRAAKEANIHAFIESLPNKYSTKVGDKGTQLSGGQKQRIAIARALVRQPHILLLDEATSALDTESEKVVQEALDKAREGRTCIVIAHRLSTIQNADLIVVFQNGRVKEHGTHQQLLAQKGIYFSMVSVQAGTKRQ
# experiment_summary: Inhibition of ABCB1 expressed in Kb-V1 cells after 10 mins by calcein-AM assay
pIC50: −log10 of the molar value.
Here, each record is paired with measured pIC50 data.

structure_smiles_string: COCCOCCOCCOc1cc2c(cc1OC)CCN(CCc1ccc(NC(=O)c3ccc(C(=O)OC)c(NC(=O)c4ccc5ncccc5c4)c3)cc1)C2
pIC50: < 4.30

# context switch: different compound, same pIC50
IN: State, in one line, measured pIC50 of "COCCOCCOCCOc1cc2c(cc1OC)CCN(CCc1ccc(NC(=O)c3ccc(C(=O)O)c(NC(=O)c4ccc5ncccc5c4)c3)cc1)C2"
OUT: < 4.30

---

# subject_of_test: Broad substrate specificity ATP-binding cassette transporter ABCG2 (Homo sapiens, UniProt Q9UNQ0)
# Sequence (Q9UNQ0 whole entry): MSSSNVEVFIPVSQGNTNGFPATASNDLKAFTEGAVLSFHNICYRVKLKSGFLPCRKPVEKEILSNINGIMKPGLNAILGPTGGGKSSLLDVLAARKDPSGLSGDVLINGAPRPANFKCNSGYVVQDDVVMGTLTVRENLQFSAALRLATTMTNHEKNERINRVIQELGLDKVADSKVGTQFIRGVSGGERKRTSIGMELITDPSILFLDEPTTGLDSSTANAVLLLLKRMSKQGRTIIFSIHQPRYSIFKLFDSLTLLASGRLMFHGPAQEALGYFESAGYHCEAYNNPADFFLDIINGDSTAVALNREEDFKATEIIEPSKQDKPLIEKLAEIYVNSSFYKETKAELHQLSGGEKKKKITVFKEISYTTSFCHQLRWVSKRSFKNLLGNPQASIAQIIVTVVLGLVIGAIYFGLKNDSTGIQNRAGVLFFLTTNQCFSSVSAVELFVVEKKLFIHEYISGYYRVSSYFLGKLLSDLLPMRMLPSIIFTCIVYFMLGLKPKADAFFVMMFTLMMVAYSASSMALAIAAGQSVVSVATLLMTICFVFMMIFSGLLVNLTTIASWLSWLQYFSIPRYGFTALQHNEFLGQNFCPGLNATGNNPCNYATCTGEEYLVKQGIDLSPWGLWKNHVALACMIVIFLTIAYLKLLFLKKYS
# experiment_summary: Inhibition of ABCG2 expressed in human MCF7/Topo cells by Hoechst microplate assay
pIC50: −log10 of the molar value.
outcome_measure: pIC50

Example entries and their recorded answers appear below.
structure_smiles_string: COCCOCCOCCOc1cc2c(cc1OC)CCN(CCc1ccc(NC(=O)c3ccc(C(=O)O)c(NC(=O)c4ccc5ccccc5n4)c3)cc1)C2
pIC50: 5.21
--
structure_smiles_string: COCCOCCOCCOc1cc2c(cc1OC)CCN(CCc1ccc(NC(=O)c3ccc(C(=O)OC)c(NC(=O)c4ccc5ncccc5c4)c3)cc1)C2
pIC50: 6.29
--
structure_smiles_string: COCCOCCOCCOc1cc2c(cc1OC)CCN(CCc1ccc(NC(=O)c3ccc(C(=O)OC)c(NC(=O)c4ccc5ccccc5n4)c3)cc1)C2
pIC50: 6.89
--
structure_smiles_string: COC(=O)c1ccc(C(=O)Nc2ccc(CCN3CCc4cc(OC)c(OC)cc4C3)cc2)cc1NC(=O)c1ccc2ccccc2n1
pIC50: 7.23
--
structure_smiles_string: COC(=O)c1ccc(C(=O)Nc2ccc(CCN3CCc4cc(OC)c(OC)cc4C3)cc2)cc1NC(=O)c1ccc2ncccc2c1
pIC50: 6.76

1: COCCOCCOCCOc1cc2c(cc1OC)CN(CCc1ccc(NC(=O)c3ccc(C(=O)OC)c(NC(=O)c4ccc5ncccc5c4)c3)cc1)CC2
2: COCCOCCOCCOc1cc2c(cc1OC)CN(CCc1ccc(NC(=O)c3ccc(C(=O)OC)c(NC(=O)c4ccc5ccccc5n4)c3)cc1)CC2
IN: Sorting by pIC50 in descending order, would 1 or 2 appear first? Kindly give the label for the entry you pick.
OUT: 2

---

# subject_of_test: ATP-dependent translocase ABCB1 (Homo sapiens, UniProt P08183)
# experiment_summary: Inhibition of ABCB1 expressed in Kb-V1 cells after 10 mins by calcein-AM assay
Here, each record is paired with measured IC50 data.

Example entries and their recorded answers appear below.
structure_smiles_string: COc1cc2c(cc1OC)CN(CCc1ccc(NC(=O)c3ccc(C(=O)O)c(NC(=O)c4ccc5ccccc5n4)c3)cc1)CC2
subject_of_test: ATP-dependent translocase ABCB1 (Homo sapiens, UniProt P08183)
IC50: > 50 µM
--
structure_smiles_string: COCCOCCOCCOc1cc2c(cc1OC)CCN(CCc1ccc(NC(=O)c3ccc(C(=O)O)c(NC(=O)c4ccc5ccccc5n4)c3)cc1)C2
subject_of_test: ATP-dependent translocase ABCB1 (Homo sapiens, UniProt P08183)
IC50: > 100 µM
--
structure_smiles_string: COCCOCCOCCOc1cc2c(cc1OC)CCN(CCc1ccc(NC(=O)c3ccc(C(=O)OC)c(NC(=O)c4ccc5ccccc5n4)c3)cc1)C2
subject_of_test: ATP-dependent translocase ABCB1 (Homo sapiens, UniProt P08183)
IC50: > 50 µM
--
structure_smiles_string: COC(=O)c1ccc(C(=O)Nc2ccc(CCN3CCc4cc(OC)c(OC)cc4C3)cc2)cc1NC(=O)c1ccc2ccccc2n1
subject_of_test: ATP-dependent translocase ABCB1 (Homo sapiens, UniProt P08183)
IC50: > 29 µM
--
structure_smiles_string: COC(=O)c1ccc(C(=O)Nc2ccc(CCN3CCc4cc(OC)c(OC)cc4C3)cc2)cc1NC(=O)c1ccc2ncccc2c1
subject_of_test: ATP-dependent translocase ABCB1 (Homo sapiens, UniProt P08183)
IC50: > 10 µM
--
structure_smiles_string: COc1cc2c(cc1OC)CN(CCc1ccc(NC(=O)c3ccc(C(=O)O)c(NC(=O)c4ccc5ncccc5c4)c3)cc1)CC2
subject_of_test: ATP-dependent translocase ABCB1 (Homo sapiens, UniProt P08183)
IC50: > 1 µM
--
structure_smiles_string: COCCOCCOCCOc1cc2c(cc1OC)CN(CCc1ccc(NC(=O)c3ccc(C(=O)OC)c(NC(=O)c4ccc5ncccc5c4)c3)cc1)CC2
subject_of_test: ATP-dependent translocase ABCB1 (Homo sapiens, UniProt P08183)
IC50: > 100 µM
--
structure_smiles_string: COCCOCCOCCOc1cc2c(cc1OC)CN(CCc1ccc(NC(=O)c3ccc(C(=O)OC)c(NC(=O)c4ccc5ccccc5n4)c3)cc1)CC2
subject_of_test: ATP-dependent translocase ABCB1 (Homo sapiens, UniProt P08183)
IC50: > 50 µM
--
structure_smiles_string: COCCOCCOCCOc1cc2c(cc1OC)CN(CCc1ccc(NC(=O)c3ccc(C(=O)O)c(NC(=O)c4ccc5ccccc5n4)c3)cc1)CC2
subject_of_test: ATP-dependent translocase ABCB1 (Homo sapiens, UniProt P08183)
IC50: > 100 µM

# context switch: different molecule, same IC50
IN: State, in one line, measured IC50 of "COCCOCCOCCOc1cc2c(cc1OC)CN(CCc1ccc(NC(=O)c3ccc(C(=O)O)c(NC(=O)c4ccc5ncccc5c4)c3)cc1)CC2"
OUT: > 50 µM

---

# subject_of_test: UniProt:Q9UNQ0
# Sequence (Q9UNQ0 whole entry): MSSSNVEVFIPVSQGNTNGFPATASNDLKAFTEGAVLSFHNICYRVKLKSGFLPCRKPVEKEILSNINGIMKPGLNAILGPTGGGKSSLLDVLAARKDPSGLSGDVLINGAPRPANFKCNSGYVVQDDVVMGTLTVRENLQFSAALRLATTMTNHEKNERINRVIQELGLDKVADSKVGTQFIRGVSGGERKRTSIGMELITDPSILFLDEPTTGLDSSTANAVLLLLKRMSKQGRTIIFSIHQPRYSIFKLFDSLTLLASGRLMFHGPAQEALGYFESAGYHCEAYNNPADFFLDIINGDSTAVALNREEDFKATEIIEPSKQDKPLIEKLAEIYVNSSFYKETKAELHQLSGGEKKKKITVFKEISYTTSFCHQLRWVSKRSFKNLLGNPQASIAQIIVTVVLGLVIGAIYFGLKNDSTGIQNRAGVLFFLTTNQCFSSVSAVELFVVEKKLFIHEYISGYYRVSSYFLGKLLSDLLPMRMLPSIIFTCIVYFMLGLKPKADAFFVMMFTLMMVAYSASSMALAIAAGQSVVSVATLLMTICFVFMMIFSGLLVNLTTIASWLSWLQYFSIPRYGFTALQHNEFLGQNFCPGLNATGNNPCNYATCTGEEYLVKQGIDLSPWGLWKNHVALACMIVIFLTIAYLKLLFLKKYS
# experiment_summary: Inhibition of ABCG2 expressed in human MCF7/Topo cells by Hoechst microplate assay
pIC50: −log10 of the molar value.
outcome_measure: pIC50

Example entries and their recorded answers appear below.
structure_smiles_string: COc1cc2c(cc1OC)CN(CCc1ccc(NC(=O)c3ccc(C(=O)O)c(NC(=O)c4ccc5ccccc5n4)c3)cc1)CC2
pIC50: < 5.30
--
structure_smiles_string: COCCOCCOCCOc1cc2c(cc1OC)CN(CCc1ccc(NC(=O)c3ccc(C(=O)O)c(NC(=O)c4ccc5ncccc5c4)c3)cc1)CC2
pIC50: < 4.30
--
structure_smiles_string: COCCOCCOCCOc1cc2c(cc1OC)CCN(CCc1ccc(NC(=O)c3ccc(C(=O)O)c(NC(=O)c4ccc5ncccc5c4)c3)cc1)C2
pIC50: < 4.30
--
structure_smiles_string: COCCOCCOCCOc1cc2c(cc1OC)CN(CCc1ccc(NC(=O)c3ccc(C(=O)O)c(NC(=O)c4ccc5ccccc5n4)c3)cc1)CC2
pIC50: < 4.30

IN: State, in one line, measured pIC50 of "COc1cc2c(cc1OC)CN(CCc1ccc(NC(=O)c3ccc(C(=O)O)c(NC(=O)c4ccc5ncccc5c4)c3)cc1)CC2"
OUT: < 4.00
